# experimentNotes: in vitro
# recordedConditions: human, hek293t cells

molecule	viability at 48 h, 25 µM
C=CC(=O)NCc1ccccc1-n1nc(C)cc1C	59.1%
COC1(CNC(=O)CCl)CCC(C(F)F)CC1 (centres unmarked)	52.3%
CC(Cl)C(=O)N1CCN(Cc2ccc(C(F)(F)F)cc2)C(=O)C1 (centres unmarked)	99.6%
C=CC(=O)N(Cc1cn(C)nc1C)c1ccc2c(c1)OCCO2	81.5%
O=C(CCl)N[C@H](CO)Cc1ccccc1	81.9%
C=CC(=O)NC(c1noc(O)n1)C(C)(C)C (centres unmarked)	96.4%
C=CC(=O)N1CCn2c(cnc2C(F)(F)F)C1	81.8%
CNC(=O)c1ccc(C2CCCCN2C(=O)C(C)Cl)n1C (centres unmarked)	97.6%
CC(Cl)C(=O)NCc1ccc2cnn(C)c2c1 (centres unmarked)	87.7%
C=CC(=O)Nc1ccc2c(c1)S(=O)(=O)CC2	63.9%
C=CC(=O)Nc1ccc(C(=O)N(C)C[C@@H]2CCC(=O)N2)cc1	98.8%

====

# experimentNotes: in vitro
# recordedConditions: human, hek293t cells
Would you mind classing the entries by viability at 48 h, 25 µM? Ranges: I (below 80%), II (80% to below 90%), III (90% or more)

compound	classification
Cc1cccc(C=C(C#N)C(=O)NC(C)C)c1 [8-J07]	III
C=CC(=O)NCCS(=O)(=O)c1cccs1 [3-J17]	III
CC(C)Oc1ccc2[nH]cc(C(=O)CCl)c2c1 [10-E03]	I
C=CC(=O)NC12CC3(C)CC(C)(CC(O)(C3)C1)C2 [1-K17]	II
CC(Cl)C(=O)N1CCN(C2=NS(=O)(=O)c3ccccc32)CC1 (centres unmarked) [7-K11]	III
Cc1ccc(Oc2ccc(NC(=O)CCl)cc2)cc1 [4-K03]	I
C=CC(=O)N1CCCCC1c1nc2ccccc2n1C (centres unmarked) [3-F04]	II
Cc1ccc(C=C(C#N)C(=O)NC(C)C)s1 [9-O11]	III
COc1cccc(NC(=O)C(C#N)=Cc2cccc(O)c2)c1 [8-P03]	III
C=CC(=O)Nc1ccc2occc2c1 [3-H14, N-(1-benzofuran-5-yl)prop-2-enamide]	III
O=C(CCl)NCc1[nH]nc2c1CCCC2 [6-E04]	I

====

# experimentNotes: in vitro
# recordedConditions: human, hek293t cells
Measured viability at 48 h, 25 µM, listed per entry.
assayMetric: viability at 48 h, 25 µM (%)

molecule	measValue
CC(Cl)C(=O)NCc1cccc(Cn2cnc3ccccc32)c1 (centres unmarked) [6-O16]	116
C=CC(=O)N1CCN(c2nccn(C)c2=O)CC1 [3-P20]	181
N#CC(=Cc1ccc(F)c(F)c1)C(=O)NC1CC1 [9-M06]	109
O=C(O)C(c1ccccc1)N1C(=O)C=CC1=O (centres unmarked) [10-E21]	92.4
C=CC(=O)N1CCOCC2(COCCN2C)C1 (centres unmarked) [3-J14]	96
Cc1ccc(C(=O)c2ccccc2NC(=O)CCl)cc1 [4-N17]	2.4
C=CC(=O)N(Cc1cc(C)cc2c(C)c(C)[nH]c12)CC1(C)COC1 [2-E07]	80.6
N#CC(=Cc1ccc(C#N)cc1)C(=O)Nc1cccc2ccccc12 [8-O16]	38.3
CN(CCNC(=O)CCl)S(=O)(=O)c1cccs1 [6-H11]	11.1
CN(C)C(=O)c1cc2n(n1)CC1(CCN(C(=O)CCl)CC1)OC2 [5-K11]	0.714
CC(C)c1ccc(CC(=O)CCl)cc1 [10-I17]	73.5
N#CC(=Cc1ccc(-c2ccc(Cl)cc2)o1)C(=O)Nc1ccccc1 [8-O03]	58.3
CC(C)c1ccc(C(C)NC(=O)CCl)cc1 (centres unmarked) [4-I05]	1.47
O=C1C=CC(=O)N1c1ccc(OC(F)(F)F)cc1 [10-J19]	85.4
C=CC(=O)N(C)CC(=O)Nc1ccc(N2CCOCC2=O)c(C)c1 [3-J07]	51.4
Cc1cc(C(=O)CCl)c(C)n1CCc1ccc(Cl)cc1 [10-N16]	0.625
CC(Cl)C(=O)NCC(c1ccc(Cl)cc1)n1cccn1 (centres unmarked) [7-J05]	100
COc1ccc(NC(=O)C(C#N)=Cc2cccc(O)c2)cc1OC [8-F09]	86.1
Cc1cc(C(=O)O)ccc1N1C(=O)C=CC1=O [10-G22]	107
CN(CCOc1ccccc1F)C(=O)CCl [6-C03]	1.83
C=CC(=O)NCc1nonc1C [2-H07]	57.6
CC(Cl)C(=O)NC1(c2ccccc2)CCOCC1 (centres unmarked) [7-A11]	108
N#CC(=Cc1cc(F)ccc1F)C(=O)Nc1ccc(F)cc1F [8-C10]	91.2

====

# experimentNotes: in vitro
# recordedConditions: human, hek293t cells
assayMetric: viability at 48 h, 25 µM (%)

compound	measValue
CC(Cl)C(=O)NC(=O)NC1CCS(=O)(=O)C1 (centres unmarked)	94.7
C=CC(=O)Nc1nc(Cc2ccccc2)c(C)s1	73.2
O=C1C=CC(=O)N1c1cnccn1	103
O=C(CCl)c1ccc2c(c1)-c1ccccc1C2	51.2
C=CC(=O)NC(C)c1ccc(S(=O)(=O)N(C)C)cc1 (centres unmarked)	51.5
N#CC(=Cc1ccc2[nH]c(=O)[nH]c2c1)C(=O)NC1CCCC1	121
C=CC(=O)NC1(c2nc(C3CC3)cc(=O)[nH]2)CCCCC1	68.3
N#CC(=Cc1ccccc1OC(F)F)C(=O)NC1CCCCC1	20.8
C=CC(=O)N1CCOC(c2nccs2)C1 (centres unmarked)	69.4
C=CC(=O)NCc1csc2nccn12	76.8
CC(C)NC(=O)C(C#N)=Cc1ccc(C(C)C)cc1	78.1
N#CC(=Cc1cccc(O)c1)C(=O)NCc1ccc(Cl)cc1	64.4
C=CC(=O)N1CCC(C(=O)N2CCC(CC(=O)N(C)C)CC2)CC1	61.5
Cc1csc(-n2c(C)cc(C(=O)CCl)c2C)n1	72.5
CCN(CC)C(=O)c1cccc(NC(=O)CCl)c1	0.175
O=C(CCl)NC1(c2nc(-c3ccccc3)c[nH]2)CCCC1	0.673
C[C@H]1CN(C(=O)CCl)Cc2cccn21	0.688
CCCc1ccc(NC(=O)CCl)cc1 [6-I22, 2-chloro-N-(4-propylphenyl)acetamide]	0.417
C=CC(=O)NCc1ccc(-n2ccnc2)cc1	90.9
Cn1c(CNC=C(C#N)C(=O)Nc2ccccc2)cc(=O)n(C)c1=O	115
CCn1cc(NC(=O)CCl)cn1	10.5
CC(Cl)C(=O)c1c(N)n(C)c(=O)n(C)c1=O (centres unmarked)	87.8
C=CC(=O)N(C)Cc1ccnn1CC	100

====

# experimentNotes: in vitro
# recordedConditions: human, hek293t cells
Criterion: viability at 48 h, 25 µM strictly less than 80%. Met: criterion met. Not met: criterion not met.

compound	classification
COc1ccc([N+](=O)[O-])cc1NC(=O)C(C)Cl (centres unmarked)	criterion not met
O=C(CCl)c1ccc(NC(=O)c2ccccc2)cc1 [10-B06, N-[4-(2-chloroacetyl)phenyl]benzamide]	criterion met
C=CC(=O)N1CCCC(O)(CC(N)=O)C1 (centres unmarked)	criterion not met
CN(C)C1=NC(N)=NC(=C(C#N)C(=O)CCl)N1	criterion not met
COc1ccc2cc(CN(C)C(=O)CCl)ccc2c1	criterion met
COc1ccccc1C(NC(=O)C(C)Cl)c1ccco1 (centres unmarked)	criterion not met
CC(NC(=O)CCl)C(=O)N1c2ccccc2CC1C (centres unmarked)	criterion met
CC1CCCN(C(=O)C(NC(=O)CCl)c2cnn(C)c2)C1 (centres unmarked)	criterion not met
O=C(CCl)NCc1ccc(C(=O)N2CCOCC2)cc1	criterion met
Cc1nn(CC(C)C)c(Cl)c1C1CCCN1C(=O)CCl (centres unmarked)	criterion met
COc1cc(Cl)c(C)cc1N1C(=O)C=CC1=O	criterion not met
C=CC(=O)N1CCC(C(=O)NCCO)CC1	criterion met
O=C(CCl)Nc1ccc(Cl)c(S(=O)(=O)N2CCOCC2)c1	criterion met
CCCN(CC1CC1)C(=O)CCl	criterion met
C=CC(=O)N(CC(C)(C)C)C1CCN(c2ccc(C#N)cn2)CC1	criterion not met
O=C(CCl)NCC1CCN(C(=O)c2ccccc2)CC1	criterion met
Cc1cc(C(=O)CCl)c(C)n1Cc1ccc(F)cc1	criterion met
Cc1cc(C(=O)CCl)c(C)n1-c1ccc(Cl)cc1	criterion met
CC(Cl)C(=O)N1CCOCC1c1ncnn1Cc1ccccc1 (centres unmarked)	criterion not met
O=C(CCl)NCCc1ccc(Cl)cc1	criterion met
CC(C)NC(=O)C(C#N)=Cc1ccc(-c2ccccc2F)o1	criterion met
CC(=O)N(c1ccccc1)c1nc(C=C(C#N)C(=O)NC2CC2)cs1	criterion not met
CN(Cc1ccc(-c2ccc(Cl)cc2)o1)C(=O)CCl	criterion met
C=CC(=O)N1CCCN(S(N)(=O)=O)CC1	criterion not met
CN(C)S(=O)(=O)c1cc(NC(=O)CCl)ccc1Cl	criterion met
C=CC(=O)NC1CCN(Cc2ccc(Cl)cc2)CC1	criterion not met
C=CC(=O)N(Cc1c(C)cccc1OC)C1CCCCNC1=O (centres unmarked)	criterion not met
Nc1c(C(=O)CCl)c(=O)[nH]c(=O)n1Cc1ccccc1	criterion not met
CC(=O)c1c(C)[nH]c(C(=O)C(C)Cl)c1C (centres unmarked)	criterion not met
N#CC(=Cc1ccco1)C(=O)Nc1ccc2nc(S)oc2c1	criterion not met
CCN1C(=O)C(=Cc2ccc(-c3ccc(F)cc3)o2)C(C)=C(C#N)C1=O	criterion not met
O=C(CCl)N1CCN(CC=Cc2ccccc2)CC1	criterion met
N#CC(=Cc1ccc(-c2ccccc2F)o1)C(=O)Nc1nccs1	criterion not met
COc1ccc(C2=NN(C(=O)CCl)C(c3cccc(C)c3)C2)cc1 (centres unmarked)	criterion met
Cc1ccc(Oc2ccc(Cl)cc2NC(=O)CCl)cc1	criterion not met
C=CC(=O)NC(C)c1ccc2c(c1)CCC2 (centres unmarked)	criterion met
CSc1ccc(C=C(C#N)C(=O)Nc2ccc(C(=O)O)cc2)cc1	criterion not met
COCC(C)NC(=O)C(C#N)=Cc1cc2cc(F)ccc2o1 (centres unmarked)	criterion not met
CCc1ccc(NC(=O)C(C)Cl)cc1 (centres unmarked) [4-L15, 2-chloro-N-(4-ethylphenyl)propanamide]	criterion met
N#CC(=Cc1cccnc1)C(=O)NCCc1ccccc1	criterion not met
C=CC(=O)NC(Cn1ccccc1=O)c1ccccc1 (centres unmarked)	criterion met
